Test target: human recombinant COX2 (hCOX2)
Protocol description: LCMS-based COX2 enzymatic inhibition assay (PGE2 quantification)
Format: biochemical
Design: COX2 2 minutes pge2/pge2d4 area ratio Avg; other: 2 minutes; readout pge2/pge2d4 area ratio; average; COX2 2 minutes pge2/pge2d4 area ratio Avg; LLE; average LLE; COX2 2 minutes pge2 area (counts) Avg; readout pge2 area (counts); other: 2 min; "ovine COX2 (oCOX2), human recombinant COX2 (hCOX2)"
Particulars: 2 minutes; readout pge2 area (counts); average; read-out: COX2 2 minutes pge2 area (counts) Avg. IC50
Give pIC50 for every item shown.
Notebook: values listed as pIC50 are -log10 of the concentration (mol/L).

Prompt line: Determine its reported pIC50: COc1cc(-c2ccc(S(C)(=O)=O)cc2)cc(NCc2cccs2)n1
Response line: 7.62

Prompt line: // Input: CS(=O)(=O)c1ccc(-c2cccc(C3CC3c3ccoc3)n2)cc1 (single isomer, unassigned) [Compound 115] . Output its pIC50 only.
Response line: 7.20

Prompt line: In one line, give reported pIC50 of the entry COc1cnc(-c2ccc(S(C)(=O)=O)cc2)nc1OCc1cccs1 .
Response line: 6.92

Prompt line: Identify measured pIC50 associated with CS(=O)(=O)c1ccc(-c2cncc(CCc3cccs3)n2)cc1
Response line: 5.62

Prompt line: Return pIC50 for the following molecule: CS(=O)(=O)c1ccc(-c2cccc(Oc3ccccc3)n2)cc1
Response line: 7.33

Prompt line: Quick one: give measured pIC50 for CS(=O)(=O)c1ccc(-c2cccc(OCc3ccsc3)n2)cc1
Response line: 8.05

Prompt line: State, in one line, measured pIC50 of COc1ncc(NCc2cccs2)nc1-c1ccc(S(C)(=O)=O)cc1
Response line: 7.84

Prompt line: Tell me measured pIC50 for CS(=O)(=O)c1ccc(-c2cncc(SCc3cccs3)n2)cc1 please.
Response line: 8.09

Prompt line: Return reported pIC50. Input molecule: CS(=O)(=O)c1ccc(-n2ccc3ccc(NCc4cccs4)nc32)cc1
Response line: 7.53

---

Exercise: state measured IC50 for each of the compounds provided.
Test target: human recombinant COX2 (hCOX2) (UniProt P35354)
Sequence (P35354 1-604): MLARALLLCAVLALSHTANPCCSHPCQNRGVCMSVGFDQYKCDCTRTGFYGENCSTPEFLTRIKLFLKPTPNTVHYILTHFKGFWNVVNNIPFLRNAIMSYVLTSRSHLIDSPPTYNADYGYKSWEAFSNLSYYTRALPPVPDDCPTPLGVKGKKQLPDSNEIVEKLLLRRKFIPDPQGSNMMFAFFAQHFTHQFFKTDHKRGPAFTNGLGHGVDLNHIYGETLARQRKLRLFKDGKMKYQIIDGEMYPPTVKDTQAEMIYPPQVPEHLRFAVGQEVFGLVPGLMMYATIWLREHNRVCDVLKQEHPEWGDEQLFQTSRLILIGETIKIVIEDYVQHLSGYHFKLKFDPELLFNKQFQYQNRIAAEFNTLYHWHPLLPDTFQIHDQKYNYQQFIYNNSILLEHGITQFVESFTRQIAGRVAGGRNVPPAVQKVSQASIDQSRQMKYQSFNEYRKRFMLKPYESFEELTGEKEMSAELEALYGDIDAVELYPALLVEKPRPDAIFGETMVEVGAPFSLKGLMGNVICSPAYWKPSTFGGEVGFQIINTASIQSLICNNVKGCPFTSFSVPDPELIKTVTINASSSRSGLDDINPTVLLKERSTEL
Protocol description: LCMS-based COX2 enzymatic inhibition assay (PGE2 quantification)
Format: biochemical
Design: COX2 2 minutes pge2/pge2d4 area ratio Avg; other: 2 minutes; readout pge2/pge2d4 area ratio; average; COX2 2 minutes pge2/pge2d4 area ratio Avg; LLE; average LLE; COX2 2 minutes pge2 area (counts) Avg; readout pge2 area (counts); other: 2 min; "ovine COX2 (oCOX2), human recombinant COX2 (hCOX2)"
Particulars: 30 minutes; readout pge2 area (counts); average; read-out: COX2 30 minutes pge2 area (counts) Avg. IC50
Excerpt: We have adapted a previously reported cyclooxygenase enzymatic assay utilizing LCMS quantification of PGE2 as the product of COX-1 and COX2 catalyzed conversion of arachidonic acid to evaluate the binding properties of newly synthesized ligands [Cao, 2011]. […] Using these enzymatic assays, we have evaluated>200 newly synthesized ligands against COX2 and >20 ligands against COX-1. […]
The figure you give is taken to be in pM; do not add the unit.

Prompt line: For CS(=O)(=O)c1ccc(-c2cc(C(F)(F)F)nc(Oc3ccc(F)cc3)n2)cc1 , write its IC50.
Response line: 242

Prompt line: // Input: COc1cc(NCc2cccs2)nc(-c2ccc(S(C)(=O)=O)cc2)c1 . Output its IC50 only.
Response line: 416

Prompt line: Tell us which IC50 value is on record for CS(=O)(=O)c1ccc(-c2cncc(NCc3cccs3)n2)cc1
Response line: 2740

---

Test target: human recombinant COX2 (hCOX2)
Protocol description: LCMS-based COX2 enzymatic inhibition assay (PGE2 quantification)
Assay type: biochemical
Set-up: COX2 2 minutes pge2/pge2d4 area ratio Avg; other: 2 minutes; readout pge2/pge2d4 area ratio; average; COX2 2 minutes pge2/pge2d4 area ratio Avg; LLE; average LLE; COX2 2 minutes pge2 area (counts) Avg; readout pge2 area (counts); other: 2 min; "ovine COX2 (oCOX2), human recombinant COX2 (hCOX2)"
Particulars: 2 minutes; readout pge2 area (counts); average; read-out: COX2 2 minutes pge2 area (counts) Avg. IC50
Just a reminder that ties go to not satisfied: only IC50 strictly below 30 nM counts as satisfied.

Prompt line: Hi there! Is IC50 for CS(=O)(=O)c1ccc(-c2ccc3c(n2)N(Cc2cccs2)CC3)cc1 below 30 nM, do you know?
Response line: not satisfied

Prompt line: Below 30 nM on IC50? Entry CS(=O)(=O)c1ccc(-c2cc3ccoc3c(NCc3cccs3)n2)cc1
Response line: not satisfied

Prompt line: Consider C[C@@H](Oc1cccc(-c2ccc(S(C)(=O)=O)cc2)n1)c1cccs1 (single isomer, unassigned) . Does its IC50 lie strictly below 30 nM?
Response line: not satisfied

Prompt line: Please determine if CS(=O)(=O)c1ccc(-n2ccc3cnc(NCc4cccs4)nc32)cc1 is below 30 nM in terms of IC50.
Response line: not satisfied

Prompt line: Quick check: does CS(=O)(=O)c1ccc(-c2cncc(NCc3ccoc3)c2)cc1 have IC50 under 30 nM?
Response line: not satisfied

Prompt line: Is IC50 of CS(=O)(=O)c1ccc(-n2ccc3ccc(Cc4cccs4)nc32)cc1 strictly below 30 nM?
Response line: not satisfied

Prompt line: Strictly below 30 nM in IC50? CS(=O)(=O)c1ccc(-c2ccc3cnn(Cc4cccs4)c3n2)cc1
Response line: satisfied

Prompt line: Given the entry COc1cc(NCc2cccs2)cc(-c2ccc(S(C)(=O)=O)cc2)n1 , would its reported IC50 be below 30 nM?
Response line: satisfied

Prompt line: Dear reviewer, please state whether CS(=O)(=O)c1ccc(-c2cc(F)cc(NCc3ccoc3)n2)cc1 has IC50 strictly beneath 30 nM.
Response line: satisfied

---

Answer each item with its documented IC50.
Test target: human recombinant COX2 (hCOX2) (UniProt P35354)
Protocol description: LCMS-based COX2 enzymatic inhibition assay (PGE2 quantification)
Format: biochemical
Set-up: COX2 2 minutes pge2/pge2d4 area ratio Avg; other: 2 minutes; readout pge2/pge2d4 area ratio; average; COX2 2 minutes pge2/pge2d4 area ratio Avg; LLE; average LLE; COX2 2 minutes pge2 area (counts) Avg; readout pge2 area (counts); other: 2 min; "ovine COX2 (oCOX2), human recombinant COX2 (hCOX2)"
Particulars: 2 minutes; readout pge2/pge2d4 area ratio; average; read-out: COX2 2 minutes pge2/pge2d4 area ratio Avg. IC50
Give the quantity in µM, number only.

Prompt line: Answer with the recorded IC50 of CS(=O)(=O)c1ccc(-c2cncc(SCc3ccccn3)n2)cc1 [Compound 131] only.
Response line: 0.157

Prompt line: Return IC50 for the following compound: CS(=O)(=O)c1ccc(-c2cccc(NCc3ccco3)n2)cn1 [Compound 250]
Response line: 3.44

Prompt line: Output measured IC50 for this item: NS(=O)(=O)c1ccc(-c2cncc(OCc3cccs3)n2)cc1 [Compound 3]
Response line: 0.00555

Prompt line: Quick one: give measured IC50 for CS(=O)(=O)c1ccc(-c2cncc(NCc3ccoc3)c2)cc1 [Compound 174]
Response line: 0.484

Prompt line: Name the recorded IC50 of the item CS(=O)(=O)c1ccc(-c2ccc3ccn(Cc4ccco4)c3n2)cc1 [Compound 61] in your answer.
Response line: 0.0333

Prompt line: Consider the compound Cc1occc1CNc1cccc(-c2ccc(S(C)(=O)=O)cc2)n1 [Compound 21] . State its measured IC50.
Response line: 0.0109

Prompt line: Given C[C@@H](Oc1cccc(-c2ccc(S(C)(=O)=O)cc2)n1)c1cccs1 (single isomer, unassigned) [Compound 229] , respond with its IC50.
Response line: 2.25

Prompt line: Read off the recorded IC50 for CS(=O)(=O)c1ccc(-c2cnc(C(F)(F)F)c(NCc3cccs3)n2)cc1 [Compound 144]
Response line: 0.234

Prompt line: Specify IC50 for CS(=O)(=O)c1ccc(-c2ccc3ccn(Cc4cccs4)c3n2)cc1 [Compound 31] and stop.
Response line: 0.0152

Prompt line: Identify measured IC50 corresponding to CS(=O)(=O)c1ccc(-c2cnc(F)c(NCc3cccs3)n2)cc1 [Compound 97]
Response line: 0.0757

Prompt line: Identify measured IC50 corresponding to CS(=O)(=O)c1ccc(-c2cc(NCc3ccoc3)ccn2)cc1 [Compound 242]
Response line: 3.01

Prompt line: For the compound CS(=O)(=O)c1ccc(-n2ccc3ccc(NCc4ccoc4)nc32)cc1 [Compound 83] , give its reported IC50.
Response line: 0.0579

Prompt line: Answer with reported IC50 of CS(=O)(=O)c1ccc(-c2cnc3ccn(Cc4ccco4)c3n2)cc1 [Compound 82]
Response line: 0.0573

Prompt line: Return IC50 for the following compound: CN(Cc1ccco1)c1cccc(-c2ccc(S(C)(=O)=O)cc2)n1 [Compound 200]
Response line: 1.01

Prompt line: Please indicate IC50 recorded for CS(=O)(=O)c1ccc(-c2cncc(Oc3ccccc3)n2)cc1 [Compound 132]
Response line: 0.158

Prompt line: State its IC50 for this compound: CS(=O)(=O)c1ccc(-c2nc(NCc3ccco3)ccc2F)cc1 [Compound 218]
Response line: 1.61

Prompt line: Give the measured IC50 for COc1nc(NCc2cccs2)cc(-c2ccc(S(C)(=O)=O)cc2)n1 [Compound 156]
Response line: 0.332

Prompt line: Item CS(=O)(=O)c1ccc(-c2cncc(OC[C@@H]3CCCS3)n2)cc1 (single isomer, unassigned) [Compound 170] : provide IC50
Response line: 0.442
